# Tested on: TK-10 renal
# procedure_text: NCI tumour cell line growth inhibition, 48 h
reported_property: TGI

compound	reported_property	measurement
O=C(c1ccccc1)c1c(CC(O)c2ccccc2)n(C(=O)c2ccccc2)c2ccccc12 (stereo not given)	TGI	> 100 µM
O=C1/C(=C/c2cccs2)NC(=S)N1CN1CCCC(CO)C1 (stereo not given)	TGI	> 100 µM
O=C(O)c1ccc(Nc2nc3cc(C(F)(F)F)ccc3nc2-c2ccccc2)cc1	TGI	39.3 µM
CCOc1c(C#N)c2c(N)ncnc2n1C1OC(CO)C(O)C1O (stereo not given)	TGI	> 28 µM
CC1=C2[C@H](c3ccccc3)C3C=CC2(c2ccccc23)N(C(=O)C(c2ccccc2)c2ccccc2)C1=O (stereo not given in full)	TGI	> 100 µM

* * *

# System: RPMI-8226 leukemia
# procedure_text: NCI tumour cell line growth inhibition, 48 h
reported_property: TGI

molecule	measurement
CC(=N)N(C)O	> 100 µM
COc1cc(C23OCC(Cc4cc5c(cc42)OCO5)C3CO)cc(OC)c1OC (stereo not drawn)	> 100 µM
N#CCCN(CCC#N)c1ccc(/C=C2\N=C(c3cc([N+](=O)[O-])ccc3Cl)N(NC(=O)CC(=O)Nc3ccccc3Cl)C2=O)cc1	> 100 µM

* * *

# System: SK-OV-3 ovarian
# procedure_text: NCI tumour cell line growth inhibition, 48 h

molecule	GI50
Cc1nnc(-c2ccc(C)c(-c3ccc(C(=O)NCc4ccc(Cl)cc4)cc3)c2)o1	9.53 µM
Cc1ccc(C2CC(c3cccc(Nc4ccncc4)c3)=NN2c2ccccc2)cc1 (stereo unspecified)	2.34 µM
O=C(NNC(=S)Nc1ccccc1)c1ccccn1	7.33 µM
O=C(Nc1nc(-c2ccc(Cl)cc2)nc2c1sc(=S)n2-c1ccccc1)C(F)(F)F	2.71 µM
CC(C)CCC(=O)[C@@H](C)[C@H]1[C@@H](OC2OCC(O)C(O)C2NS(C)(=O)=O)C[C@H]2[C@@H]3CC=C4C[C@@H](O)CC[C@]4(C)[C@H]3CC[C@]12C (stereo partly specified)	1.27 µM
C/C=C(/C)C(=O)OC1C=C(CO)C(=O)C(OC(=O)C(C)(O)C(C)Cl)C1C(C)C (stereo unspecified)	4.5 µM

* * *

Here the recorded TGI is given for each entry.
# Test system: MDA-MB-435
# procedure_text: NCI tumour cell line growth inhibition, 48 h

compound	TGI
COC(=O)C1C(C(=O)OC)C1(Br)CBr (stereo unspecified)	> 100 µM
CC(=O)OCC(OC(C)=O)C(OC(C)=O)C(OC(C)=O)C(/C=N\Nc1nc2ccccc2c(=O)[nH]1)=N/Nc1nc2ccccc2c(=O)[nH]1 (stereo unspecified)	> 100 µM
Cc1nnc(-c2ccc(C)c(-c3ccc(C(=O)NCc4ccc(Cl)cc4)cc3)c2)o1	> 25 µM
Oc1ccc(-c2cn3cc(C(F)(F)F)ccc3n2)cc1	> 100 µM
Nc1c(N2CCCCC2)c(=O)nc2[nH]/c(=C\c3ccccc3)c(=O)n12	> 100 µM
Cn1c(-c2ccc(N=NNc3ccc(-c4n[nH]c(=S)n4C)cc3)cc2)n[nH]c1=S	> 100 µM

* * *

# Test system: HOP-62 NSCLC
# procedure_text: NCI tumour cell line growth inhibition, 48 h
Label scheme for TGI: lower than 30 µM is 0.0, 30 µM and above is 1.0.

molecule	classification
C=C1CC(COc2ccc3c(C)cc(=O)oc3c2)(c2ccccc2)OC1=O (centres undefined)	1.0
CC1OC(O[C@H]2CC[C@]3(C=O)[C@H]4CC[C@]5(C)[C@H](C6=CC(=O)OC6)CC[C@]5(O)[C@@H]4C=C[C@]3(O)C2)CC(O)C1O (some centres undefined)	0.0
COc1ccccc1NC(=S)Nc1cc(C)ccn1	1.0
O=C(O)CC1CC=C[C@H]2c3cc4c(cc3C(=O)NC12)OCO4 (some centres undefined)	1.0
COc1ncnc2c1cnn2Cc1cn(CCCCO)nn1	1.0
C#CCN(N=O)C(=O)NCCCC(NC(C)=O)C(=O)NCc1ccccc1 (centres undefined)	1.0
CC1=CC(C)(C)Nc2ccc(CSc3ccccc3)cc21	1.0
Cc1c2c(ccc3ccccc32)c[n+]2ccccc12	0.0
CCOC(=O)c1[nH]c2nc(SC)nc(Nc3ccccc3Cl)c2c1N	1.0
c1ccc(C2=Nc3cccc4cccc(c34)N2)cc1	1.0
Cc1cc(C)n(CN(Cn2nc(C)cc2C)c2ccccc2)n1	1.0
N#Cc1c(N)c(C#N)c2c(c1-c1ccc(Cl)cc1)COc1ccccc1-2	1.0
O=C(O)CCC(NC(=O)c1ccc(CNc2nc3ccccc3nc2C(=O)O)cc1)C(=O)O (centres undefined)	1.0
Cc1cc(C)n(C(=O)CSc2nnc(SCC(=O)n3nc(C)cc3C)s2)n1	1.0
N#Cc1c(-c2ccccc2)c(C#N)c(=O)n(C2OC(CO)C(O)C(O)C2O)c1S (centres undefined)	1.0
CC(C)(C)NC/C(=C\c1ccccc1)C(=O)c1ccccc1	0.0
O=C(O)c1ccc(Nc2nc3cc(C(F)(F)F)ccc3nc2-c2ccccc2)cc1	1.0
C=C1CCC2C3(C)COC(c4ccc(Cl)cc4)OC3CCC2(C)C1/C=C/C1=CCOC1=O (centres undefined)	1.0
COc1ccc2c(c1)C(=O)c1c-2n(CCCN)c(=O)c2cc(OC)c(OC)cc12	0.0
Cc1cn2c(/C=C3/C(=O)Nc4ccc(F)cc43)c(C)nc2s1	1.0
Cn1c(=O)oc2cc(Br)ccc21	1.0
CCOC(=O)c1cc(-c2ccc(OC)c(OC)c2)[nH]c1N/N=C/c1c(Cl)cccc1Cl	0.0
CC[C@@H](C)Nc1cc(C(=O)NC2CC3CCC(C2)N3c2ccc(C(=O)C3CC3)cn2)c(C)cc1C(N)=O (some centres undefined)	1.0
C[C@]12CC[C@@H]3c4ccc(OCCN5CCCC5)cc4CC[C@H]3[C@@H]1CCC2=O	1.0
Cn1c2c3c(F)c(F)ccc3nc-2cc2ccccc21	0.0
Oc1cc(CN2COc3ccccc32)c(O)cc1CNC1CCCCC1	1.0
COc1ccc(/C=C2\CC(C)CC3C2=NN(c2ccccc2)C3c2ccc(OC)c(OC)c2)cc1OC (centres undefined)	0.0
COc1ccc(N2C(=O)/C(=C\c3cccc(Oc4ccccc4)c3)SC2c2ccccc2)cc1 (centres undefined)	1.0
CC(O[Si](c1ccccc1)(c1ccccc1)C(C)(C)C)[C@H](NC(=O)OC(C)(C)C)C(=O)O (some centres undefined)	1.0
CC(C)(C)NC(=O)C12C3C4C1C1C2C3C41C(=O)NC(C)(C)C (centres undefined)	1.0
CC(=O)ON(C(C)=O)C1C(COC(c2ccccc2)(c2ccccc2)c2ccccc2)OC2OC3(CCCC3)OC21 (centres undefined)	1.0
O=[N+]([O-])c1sc2ccc(Cl)cc2c1Nc1ccc(Cl)cc1	1.0
CCCCCCCCCOC(=S)NCCCCC	1.0

* * *

# System: M19-MEL melanoma
# procedure_text: NCI tumour cell line growth inhibition, 48 h
Below, each of the molecules is paired with its reported TGI value.
reported_property: TGI

molecule	measurement
CCOC(=O)C1SC(=Nc2ccc(Cl)cc2C)N=C1C (stereo not drawn)	43.7 µM
CC1=NN(C(=O)c2ccc(Cl)cc2)C(=O)/C1=C/c1ccco1	> 100 µM
COc1ccc(C[C@H](N)C(=O)N2C[C@@H](CO)C[C@@H](n3cnc4c(N(C)C)ncnc43)C2)cc1	> 100 µM

* * *

# Tested on: SF-295 CNS
# procedure_text: NCI tumour cell line growth inhibition, 48 h

molecule	GI50
CCCCCCN(C)Cc1ccc(OCCOc2ccc(CN(C)CCCCCC)cc2)cc1	1.23 µM
N#Cc1c(N)nc(N2CCSCC2)c(C#N)c1-c1ccc(O)cc1	18.4 µM
COc1ccc2c(c1)N(CCO)C1=C(C(=O)OC1)C2c1ccccc1 (stereo unspecified)	0.888 µM
CCC[CH2][Sn]([CH2]CCC)([O]C(=O)c1cc(F)cc(F)c1)[O][Sn]([CH2]CCC)([CH2]CCC)[O]C(=O)c1cc(F)cc(F)c1	1.67 µM
Cc1nnc(-c2ccc(C)c(-c3ccc(C(=O)NCc4ccc(Cl)cc4)cc3)c2)o1	7.16 µM
COc1cc(-c2ccc(NC(=O)NC3CC3)c(OC)c2)ccc1NC(=O)NC1CC1	4.36 µM

* * *

Some molecules, each annotated with its measured log10 TGI.
# System: HCT-15 colon
# procedure_text: NCI tumour cell line growth inhibition, 48 h
reported_property: log10 TGI (log10 of the value in µM)

molecule	log10 TGI
CCCCCCCCCOC(=S)NCCCCC	1.73
CC(=O)Oc1c2oc3cc(O)c(O)cc3c2c(OC(C)=O)c2oc3cc(O)c(O)cc3c12	1.86
O=C(Nc1cccc(Cl)c1)c1cc(N=Nc2ccc([N+](=O)[O-])cc2Cl)ccc1O	0.77
COc1ccc(/C=C2\CC(C)CC3C2=NN(c2ccccc2)C3c2ccc(OC)c(OC)c2)cc1OC (centres undefined)	0.64
O=C1C(Cl)=C(N2CCN(c3ccccn3)CC2)C(=O)c2ncccc21	0.49
C=C1CC(COc2ccc3c(C)cc(=O)oc3c2)(c2ccccc2)OC1=O (centres undefined)	0.56

Ref: PubChem BioAssay (NCI)
